# protocol notes: Cytotoxicity against BALB/c mouse TH2 cells after 48 hrs by Trypan blue assay
# Format: cell-based
# run parameters: read-out: LD50
readout: CC50 at 48 h

# compound, result value
measured = [
    ("C[C@@H]1OC(=O)[C@@H](NC(=O)c2cccc(NC=O)c2O)[C@@H](C)OC(=O)[C@H](Cc2ccccc2)[C@H]1O", "> 6000 nM"),
    ("CCC(C)C(=O)O[C@H]1[C@H](C)OC(=O)[C@@H](NC(=O)c2cccc(NC=O)c2O)[C@@H](C)OC(=O)[C@@H]1Cc1ccccc1 (stereo not given in full)", "> 560 nM"),
    ("CCCCCC[C@H]1C(=O)O[C@H](C)[C@H](NC(=O)c2cccc(NC=O)c2O)C(=O)O[C@@H](C)[C@@H]1OC(=O)c1ccccc1", "> 550 nM"),
    ("CCCC[C@H]1C(=O)O[C@H](C)[C@H](NC(=O)c2cccc(NC=O)c2O)C(=O)O[C@@H](C)[C@@H]1OC(=O)c1ccccc1", "> 570 nM"),
    ("C[C@@H]1OC(=O)[C@@H](NC(=O)c2cccc(NC=O)c2O)[C@@H](C)OC(=O)[C@H](Cc2ccccc2)[C@H]1OC(=O)c1ccccc1", "> 540 nM"),
]

---

# protocol notes: Cytotoxicity against BALB/c mouse TH2 cells after 48 hrs by Trypan blue assay
# Format: cell-based
# run parameters: read-out: LD50
readout: CC50 at 48 h

# molecule, readout, result value
measured = [
    ("CCCCC[C@H]1C(=O)O[C@H](C)[C@H](NC(=O)c2cccc(NC=O)c2O)C(=O)O[C@@H](C)[C@@H]1OC(=O)c1ccccc1 [SPLENOCIN F]", "CC50 at 48 h", "> 0.56 µM"),
    ("CC[C@H]1C(=O)O[C@H](C)[C@H](NC(=O)c2cccc(NC=O)c2O)C(=O)O[C@@H](C)[C@@H]1OC(=O)c1ccccc1 [SPLENOCIN D]", "CC50 at 48 h", "> 0.55 µM"),
    ("CC(C)C(=O)O[C@H]1[C@H](C)OC(=O)[C@@H](NC(=O)c2cccc(NC=O)c2O)[C@@H](C)OC(=O)[C@@H]1Cc1ccccc1 [SPLENOCIN B]", "CC50 at 48 h", "> 1.7 µM"),
    ("CC(=O)O[C@H]1[C@H](C)OC(=O)[C@@H](NC(=O)c2cccc(NC=O)c2O)[C@@H](C)OC(=O)[C@@H]1Cc1ccccc1 [SPLENOCIN A]", "CC50 at 48 h", "> 1.8 µM"),
    ("C[C@@H]1C[C@H]2[C@@H]3CCC4=CC(=O)C=C[C@]4(C)[C@@]3(F)[C@@H](O)C[C@]2(C)[C@@]1(O)C(=O)CO [DEXAMETHASONE]", "CC50 at 48 h", "> 7.1 µM"),
    ("CCCCC(C)C[C@H]1C(=O)O[C@H](C)[C@H](NC(=O)c2cccc(NC=O)c2O)C(=O)O[C@@H](C)[C@@H]1OC(=O)c1ccccc1 (stereo partly specified) [SPLENOCIN H]", "CC50 at 48 h", "> 1.6 µM"),
]

---

# protocol notes: Therapeutic index, ratio of LD50 for BALB/c mouse TH2 cells to IC50 for pro-inflammatory cytokine production in BALB/c mouse TH2 cells
# Assay type: cell-based
# run parameters: read-out: TI
readout: selectivity ratio

# molecule, result value
measured = [
    ("CC(C)C(=O)O[C@H]1[C@H](C)OC(=O)[C@@H](NC(=O)c2cccc(NC=O)c2O)[C@@H](C)OC(=O)[C@@H]1Cc1ccccc1 [SPLENOCIN B]", "> 500"),
]
